- System: Leukotriene C4 (LTC4) and leukotriene D4 (LTD4) biosynthesis by cultured rat basophilic leukemia cells (RBL-1 cells)
- Test Summary: Inhibition of leukotriene biosynthesis (LTC4 and LTD4, ionophore-induced) in cultured RBL-1 cells, quantitated by radioimmunoassay
- Type: cell-based
- Assay Setup: LTC4 equivalents by [3H]-RIA
pIC50: −log10 of the molar value.
Observed Property: pIC50

{"Molecule": "CCOC(=O)CC(=O)C=Cc1ccccc1 [Example 1, ethyl 3-oxo-5-phenyl-4-pentenoate]", "Experimental Value": 4.70}
{"Molecule": "CCOC(=O)CC(=O)C=Cc1cccc(Oc2ccc(Cl)cc2)c1", "Experimental Value": 4.58}
{"Molecule": "CCOC(=O)CC(=O)C=Cc1cccc2ccccc12 [Example 27, ethyl 5-(1-naphthyl)-3-oxo-4-pentenoate]", "Experimental Value": 4.57}
{"Molecule": "CCOC(=O)CC(=O)C=Cc1ccc(OC)cc1", "Experimental Value": 4.17}
{"Molecule": "CCOC(=O)CC(=O)C=Cc1cccc(Oc2ccccc2)c1", "Experimental Value": 4.57}
